# testedOn: T1, synthetic non-modified human Hepcidin-25 (human, not fully specified)
# T1 construct: also called hHepcidin-25; non-biotinylated human hepcidin
# T1 peptide: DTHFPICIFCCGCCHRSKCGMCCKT
# experimentalProtocol: competition ELISA: non-biotinylated human hepcidin-25 titrated against a constant concentration of mutein; free mutein detected on plate-captured biotinylated human hepcidin
Property: pIC50; scope: individual binders
Hey, just a heads up that pIC50 is the negative log base 10 of the concentration in molar.

# binder, measured
rows = [
    ("lipocalin mutein of SEQ ID NO: 4 (designed binder, also called Lcn2 mutein) QDSTSDLIPAPPLSKVPLQQNFQDNQFHGKWYVVGVAGNEMLREDKDPLKMLATIYELKEDKSYNVTRVMFEYKKCVYLIETFVPGSQPGEFTLGTIKSVPGLTSGLVRVVSTNYNQHAMVFFKRVWQNREVFWITLYGRTKELTSELKENFIRFSKSLGLPENHIVFPVPIDQCIDG", 9.22),
    ("lipocalin mutein of SEQ ID NO: 9 (designed binder, also called Lcn2 mutein) QDSTSDLIPAPPLSKVPLQQNFQDNQFHGKWYVVGLAGNEVLREDKDPMKMWATIYELKEDKSYNVTIVMSLAKKCEYLFQTFVPGSQPGEFTLGDIKSSPGRTSGLVRVVSTNYNQHAMVFFKVVWQNREVFWITLYGRTKELTSGLKENFIRFSKSLGLPENHIVFPVPIDQCIDG", 9.92),
]

Kindly consider the entry below.
Request: Name the recorded pIC50 for lipocalin mutein of SEQ ID NO: 14, linked to PEG40 (designed binder, branched 40k PEG-maleimide on the free Cys at position 87, hNGAL mutein with Ser 87 back-mutated to Cys and PEGylated there) QDSTSDLIPAPPLSKVPLQQNFQDNQFHGKWYVVGLAGNEVLREDKDPMKMWATIYELEEDKSYNVTIVMFLAKKCEYLFQTFVPGCQPGEFTLGDIKSSPGRTSGLVRVVSTNYNQHAMVFFKTVWQNREVFWITLYGRTKELTSELKENFIRFSKSLGLPENHIVFPVPIDQCIDG .
Response: 8.93
